test: log P by HPLC on reversed-phase column (EEC directive 79/831 Annex V.A8); assay type: physicochemical; conditions: HPLC on reversed-phase column (footnote a)
Catalogue of log p values
Form: value (number only, do not type unit).

COC(=O)c1c([O-])n(Cc2ccc(Cl)nc2)c2cccc(C)[n+]12 1.27
Cc1ccn(CC(=O)c2c([O-])n(Cc3cnc(Cl)s3)c3c(C)ccc[n+]23)n1 1.84
COCC(=O)c1c([O-])n(Cc2ccc(Cl)nc2)c2cc(C(F)(F)F)cc[n+]12 1.99

Pending molecule:
Which value of log p has been reported for `O=C(Cn1cc(Cl)cn1)c1c([O-])n(Cc2ccc(Cl)nc2)c2cccc[n+]12` in the records?
1.96

---

experiment: log P by HPLC on reversed-phase column (EEC directive 79/831 Annex V.A8); assay type: physicochemical; settings: HPLC on reversed-phase column (footnote a)
measured-quantity: log p
Could you respond with only the numeric value?

A selection of reference data follows.
compound	log p
COCCOCC(=O)c1c([O-])n(Cc2cnc(Cl)s2)c2cccc[n+]12 [Example I-1-087]	1.38
CC(C)OCC(=O)c1c([O-])n(Cc2ccc(Cl)nc2)c2cccc[n+]12 [Example I-1-016]	1.67

log p lookup needed for CC(=O)c1c([O-])n(Cc2ccc(Cl)nc2)c2cccc[n+]12 [Example I-1-036] , thanks.
1.2

Reported log p, compound O=C(COc1cccnc1)c1c([O-])n(Cc2ccc(Cl)nc2)c2cccc[n+]12 [Example I-1-006] : ____
0.93

Reported log p for COC(=O)COCC(=O)c1c([O-])n(Cc2ccc(Cl)nc2)c2cccc[n+]12 [Example I-1-030] : what is it?
1.31

Query: log p; subject: O=C(Cn1cc(Cl)cn1)c1c([O-])n(Cc2cnc(Cl)s2)c2cccc[n+]12 [Example I-1-010]
2.09

Endpoint output: log p of CC(c1ccc(Cl)nc1)n1c([O-])c(C(=O)CCl)[n+]2ccccc12 (stereo not drawn) [Example I-1-161] . Value?
1.75

So what's the measured log p for this one? CCOCC(=O)c1c([O-])n(Cc2ccc(C(F)(F)F)nc2)c2cccc[n+]12 [Example I-1-188]
1.72

---

test: log P by HPLC on reversed-phase column (EEC directive 79/831 Annex V.A8); format: physicochemical; conditions: HPLC on reversed-phase column
measured-quantity: log p a)
Just the number.

Answered examples (2):
molecule	measured-quantity	endpoint-result
Cc1ncc(Cn2c([O-])c(C(=O)NC3CC3)[n+]3cccc(C)c23)s1	log p a)	1.45
Cc1ccc[n+]2c(C(=O)NC3CC3)c([O-])n(Cc3cnc(Cl)s3)c12	log p a)	1.93

What measured log p a) goes with `O=C(Nc1ccccc1F)c1c([O-])n(Cc2cnc(Cl)s2)c2cccc[n+]12` ?
2.95

I'd like to know its log p a). The molecule in question is `COC(=O)c1c([O-])n(Cc2cnc(Cl)c(Cl)c2)c2cccc[n+]12`
1.66

Dear colleague, I am looking for the recorded log p a) of the following molecule: `Cc1ccc[n+]2c(C(=O)Nc3cccc(C(F)(F)F)c3)c([O-])n(Cc3cnc(Cl)s3)c12`
4.06

Entry CC(c1ccc(Cl)nc1)n1c([O-])c(C(=O)NCC(F)(F)F)[n+]2ccccc12 (stereo not shown) has what log p a)?
2.2

I would be grateful if you could share the reported log p a) for `COc1cc(NC(=O)c2c([O-])n(Cc3ccc(Cl)nc3)c3cccc[n+]23)ccn1` .
1.41

State the recorded log p a) for this entry: `Cc1ccc[n+]2c(C(=O)Nc3ncccc3F)c([O-])n(Cc3cnc(Cl)s3)c12`
1.78

Recorded log p a) of `O=C(Nc1cccc(OC(F)(F)F)c1)c1c([O-])n(Cc2cnc(Cl)s2)c2cccc[n+]12` , please.
3.87

I am curious: what log p a) value has been reported for `C#Cc1cccnc1NC(=O)c1c([O-])n(Cc2cnc(Cl)s2)c2cccc[n+]12` ?
1.3
